Items are presented alongside their recorded switch fluorescence ratio.
tested on: ATP; assay: switch fluorescence ratio, 500 uM ATP over buffer (Cy3 cluster intensity, sum of 5 cycles each) (fold (ratio)); higher = stronger signal-on switching upon ATP binding; sequences stand for … in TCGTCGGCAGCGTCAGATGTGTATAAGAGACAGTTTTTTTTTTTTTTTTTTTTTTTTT…TC; conditions: aptamer strand: ATP DNA aptamer (quencher-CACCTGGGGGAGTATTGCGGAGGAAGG + anchor), 100 nM annealed; ATP concentration: 500 uM;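 further: ATP exposure 15 min at 22 °C before imaging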
Value type: switch fluorescence ratio

1) AGACACCCCT = 1.17
2) ACGTGCAACT = 0.981
3) GGGGTGAATG = 0.974
4) TGTGTTGATG = 1.01
5) CCCAGTCAGA = 1.03
6) AAAGCAGGGG = 1.06
7) TATCCGGGGT = 1.03
8) GCATGGGGCC = 1
9) ATAGTTCTGG = 0.992
10) GATGAGCTGT = 1.03
11) ATTAGACATT = 1
12) TCAGCAAATT = 1.09
13) GAGGGGCGCC = 0.987
14) TGCACTGTTT = 1.01
15) ACAGTTATTC = 1.02
16) GGTAGACTTT = 0.967
17) ACCTTGGTGT = 1.01
18) GCGGGCGTCG = 0.994
19) ATTTGGTGAC = 0.999
20) GCCCTCCAGA = 1.14
21) AGTCATTCTC = 0.984
22) GGCGTTTGGG = 0.991
23) GGATTAAATC = 1
24) TCAAGGGATC = 0.991
25) AGTTTTGTTA = 1.02
26) ATGATACATA = 1.02
27) GGGGATGTCT = 1.03
28) TCAATGAGGG = 1.01
29) TTTGATGTGT = 0.997
30) TTTGAGAGTA = 0.96
31) GCTAGTGGTG = 1.04
32) ATGGTGAATG = 0.978
33) TTGGCTTAAA = 1.01
34) CGGTTCGCGT = 0.972
35) AAACAAGTTG = 1.02
36) GGGCCAGGGA = 1
37) AACGTCAGTT = 1
38) GGCTGGTTTC = 0.997
39) TTTTAACATT = 1.06
40) CGCAGCTATT = 3.56
41) TAAGGGTTTA = 1.06
42) ACTGTGGACA = 1.02
43) ATCATATTCG = 0.99
44) CATCTAAGGC = 1.07
45) TCGTGTTGTT = 0.969
46) CAGCGGTAGG = 1.03
47) CAGGGAGACG = 1.12
48) GAGGTCTGTG = 0.965
49) GAGTTTCAGT = 1.04
50) CATAAGGGGA = 0.994

----------
Items are presented alongside their recorded switch fluorescence ratio.
system: ATP; experiment: switch fluorescence ratio, 500 uM ATP over buffer (Cy3 cluster intensity, sum of 5 cycles each) (fold (ratio)); higher = stronger signal-on switching upon ATP binding; sequences stand for … in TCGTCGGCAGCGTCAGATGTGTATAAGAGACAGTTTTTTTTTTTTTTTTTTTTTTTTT…TC; settings: aptamer strand: ATP DNA aptamer (quencher-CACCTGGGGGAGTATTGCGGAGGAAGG + anchor), 100 nM annealed; ATP concentration: 500 uM;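 further: ATP exposure 15 min at 22 °C before imaging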
Value type: switch fluorescence ratio

1. TGCCGTTCTT = 1
2. GGCTGTGGGT = 0.987
3. CGCGGTTTGT = 0.988
4. GAAGTATCGG = 0.979
5. GAAGAACTGG = 0.991
6. GACTTGGGGC = 0.993
7. TGTGTTTTTT = 0.999
8. CCATCGGTGG = 1
9. GAATTGAAAA = 1.02
10. GAGGGGAAAA = 0.99
11. GGGCTTTGTG = 1
12. ATAAAGAAGT = 1.01
13. AATTTTTCGC = 0.98
14. AGTCGGCGGA = 0.998
15. AATTGTTGTC = 0.985
16. ATTTCCGTTT = 0.984
17. AGATGACGGG = 0.975
18. CGAGGGACTG = 0.984
19. TGAATAAAGT = 0.978
20. ACTGGTGTTC = 1.02
21. ATCGTCATGG = 1.01
22. TTATGTTCGC = 0.975
23. GTGAAGTATG = 1.02
24. CTAACTGTTA = 0.99
25. CCAGCTGGAG = 0.997
26. CGTAGAGAGG = 0.998
27. AGAAGTTGGT = 1

----------
tested on: ATP; assay: switch fluorescence ratio, 500 uM ATP over buffer (Cy3 cluster intensity, sum of 5 cycles each) (fold (ratio)); higher = stronger signal-on switching upon ATP binding; sequences stand for … in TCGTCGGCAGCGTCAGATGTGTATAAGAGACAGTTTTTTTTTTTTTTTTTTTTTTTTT…TC; conditions: aptamer strand: ATP DNA aptamer (quencher-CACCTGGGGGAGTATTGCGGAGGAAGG + anchor), 100 nM annealed; ATP concentration: 500 uM;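 further: ATP exposure 15 min at 22 °C before imaging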
Value type: switch fluorescence ratio

1. TTTGTAAATA = 1.01
2. AAGGGGGTTT = 1
3. ACTCGGTGTG = 0.992
4. ACGCGGCAGG = 1.02
5. GTAGAAGGGA = 1.01
6. TTAGGTCGGT = 1.01
7. AGGTTGCATG = 1.02
8. TTTAGGTAAC = 0.992
9. AGAAAGCCGG = 0.989
10. GCCGATGCCT = 1.02
11. GGGTTTCGTG = 0.993
12. AGGGCATTAG = 1
13. CTAGTGAGTG = 0.984
14. GGTGGGGAGA = 1.02
15. AATTAAGGCA = 0.976
16. TTTGCTGGGA = 0.981
17. CCAGTTTGTG = 1.02
18. GTGAGTGGCA = 0.986
19. GGGCTTTGGC = 1
20. TTAAGAATGG = 1.01
21. TTTGGGATCA = 0.985
22. GCCCCGTTTG = 1.02
23. CGCTATGTGG = 1.02
24. GCCTAATAGT = 0.98
25. AGGGCTTGCT = 0.987
26. CTGAAATCTG = 0.997
27. TTGAGATTTG = 1.01
28. TCTTTTGGGT = 0.978
29. GGATTTTTTG = 0.983
30. ATTTAATTAA = 1.02
31. TAATCTAATA = 0.987
32. TGGGATTTCA = 0.979
33. TAGTTAACTT = 1.01
34. GATGGGAAAT = 1
35. CTAGCCATTG = 0.995
36. ATTGGTAAGG = 0.995
37. GGTATGCTCT = 0.998
38. CATCGGAGGA = 1.02
39. AAGAAGTGTT = 1

----------
tested on: ATP; assay: switch fluorescence ratio, 500 uM ATP over buffer (Cy3 cluster intensity, sum of 5 cycles each) (fold (ratio)); higher = stronger signal-on switching upon ATP binding; sequences stand for … in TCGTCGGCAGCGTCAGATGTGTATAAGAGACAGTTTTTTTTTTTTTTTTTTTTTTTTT…TC; conditions: aptamer strand: ATP DNA aptamer (quencher-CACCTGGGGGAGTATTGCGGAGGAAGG + anchor), 100 nM annealed; ATP concentration: 500 uM;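 further: ATP exposure 15 min at 22 °C before imaging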
Items are presented alongside their recorded switch fluorescence ratio.
Value type: switch fluorescence ratio

1. GGGGGATGCG = 1
2. GCTTGGTGCA = 0.997
3. GCTGGTAGGG = 1.01
4. AGGCTTGCCA = 0.999
5. GAACTAGGCA = 1
6. GTATTTTTGG = 0.972
7. TAGGCATTTT = 1
8. TGATGAGCTC = 0.983
9. GTGGATGGGA = 0.977
10. TGATTTTCGT = 1
11. CTTGATAAAA = 1.01
12. AAGGAGGGT = 0.997
13. AAGGCAAGTG = 0.989
14. TGTATTAAAG = 0.983
15. ATGATTCCTT = 1

----------
test system: ATP; test: switch fluorescence ratio, 500 uM ATP over buffer (Cy3 cluster intensity, sum of 5 cycles each) (fold (ratio)); higher = stronger signal-on switching upon ATP binding; sequences stand for … in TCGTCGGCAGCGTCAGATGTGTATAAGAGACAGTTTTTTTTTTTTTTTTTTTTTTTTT…TC; details: aptamer strand: ATP DNA aptamer (quencher-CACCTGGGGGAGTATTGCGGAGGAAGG + anchor), 100 nM annealed; ATP concentration: 500 uM;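 further: ATP exposure 15 min at 22 °C before imaging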
Value type: switch fluorescence ratio

1) TTTCATGTTA = 0.987
2) GGGTAATAAA = 1.02
3) CAGTTTAGCT = 1.02
4) TCGGTGGTAA = 0.982
5) CTGTCTGGGG = 0.974
